# Tested on: 616215-338-R-J1-PDC spheroids with HUVEC/MSC, viability
# TEST_DETAILS: Anticancer human tumor 616215-338-R-J1-PDC patient-derived colon adenocarcinoma cell line growth inhibition [PI3K]
# MEASUREMENT_CONTEXT: second compound 0.0316 µM; first compound 3.16 µM; stronger effect = lower value
READOUT: viability, T/C

Consider the reported viability, T/C for these compounds:
Noted for C=CC(=O)N1CCN(c2nc(=O)n(-c3c(C)ccnc3C(C)C)c3nc(-c4c(O)cccc4F)c(F)cc23)C(C)C1 (stereo not given) + COc1c(OCCCN2CCOCC2)ccc2c3n(c(=NC(=O)c4cnc(N)nc4)nc12)CCN3 : its viability, T/C reads 87.8%

Noted for CCCS(=O)(=O)Nc1ccc(F)c(C(=O)c2c[nH]c3ncc(-c4ccc(Cl)cc4)cc23)c1F + CC(Nc1ncnc2nc[nH]c12)c1cc2cccc(Cl)c2c(=O)n1-c1ccccc1 : its viability, T/C reads 73.2%

Noted for CNC(=O)c1ccc(N2C(=S)N(c3ccc(C#N)c(C(F)(F)F)c3)C(=O)C2(C)C)cc1F + CC(Nc1ncnc2nc[nH]c12)c1cc2cccc(Cl)c2c(=O)n1-c1ccccc1 : its viability, T/C reads 104%

Further cases:
Noted for CC(C)NCC(C(=O)N1CCN(c2ncnc3c2C(C)CC3O)CC1)c1ccc(Cl)cc1 (stereo not given) + CC(Nc1ccc2c(c1)OCCn1cc(N3C(=O)OCC3C(F)F)nc1-2)C(N)=O : its viability, T/C reads 65.8%

Noted for C#Cc1c(F)ccc2cc(O)cc(-c3ncc4c(N5CC6CCC(C5)N6)nc(OCC56CCCN5CC(F)C6)nc4c3F)c12 (stereo not given) + CC(Nc1ccc2c(c1)OCCn1cc(N3C(=O)OCC3C(F)F)nc1-2)C(N)=O : its viability, T/C reads 81.8%

###

# System: 616215-338-R-J1-PDC spheroids with HUVEC/MSC, viability
# TEST_DETAILS: Anticancer human tumor 616215-338-R-J1-PDC cell line growth inhibition [PI3K];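 further: spheroids exposed to agents for seven days before the viability read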
# MEASUREMENT_CONTEXT: second compound 0.01 µM; first compound 0.316 µM; stronger effect = lower value
Item-by-item account of viability, T/C
Answer with a number only, understood to be in %.

Noted for CC(Cn1ccc(-c2ccc(C#N)c(Cl)c2)n1)NC(=O)c1cc(C(C)O)[nH]n1 (stereo unspecified) + COc1c(OCCCN2CCOCC2)ccc2c3n(c(=NC(=O)c4cnc(N)nc4)nc12)CCN3 : its viability, T/C reads 100

Noted for C#Cc1c(F)ccc2cc(O)cc(-c3ncc4c(N5CC6CCC(C5)N6)nc(OCC56CCCN5CC(F)C6)nc4c3F)c12 (stereo unspecified) + COc1c(OCCCN2CCOCC2)ccc2c3n(c(=NC(=O)c4cnc(N)nc4)nc12)CCN3 : its viability, T/C reads 91.8

Noted for CC(Cn1ccc(-c2ccc(C#N)c(Cl)c2)n1)NC(=O)c1cc(C(C)O)[nH]n1 (stereo unspecified) + CC(Nc1ccc2c(c1)OCCn1cc(N3C(=O)OCC3C(F)F)nc1-2)C(N)=O : its viability, T/C reads 102

Noted for CCN1CCN(Cc2ccc(Nc3ncc(F)c(-c4cc(F)c5nc(C)n(C(C)C)c5c4)n3)nc2)CC1 + COc1c(OCCCN2CCOCC2)ccc2c3n(c(=NC(=O)c4cnc(N)nc4)nc12)CCN3 : its viability, T/C reads 138

Noted for C=CC(=O)N1CCN(c2nc(=O)n(-c3c(C)ccnc3C(C)C)c3nc(-c4c(O)cccc4F)c(F)cc23)C(C)C1 (stereo unspecified) + CC(Nc1ccc2c(c1)OCCn1cc(N3C(=O)OCC3C(F)F)nc1-2)C(N)=O : its viability, T/C reads 84.2

Further cases:
Noted for Cn1ncc(Cl)c1-c1cc(C(=O)NC(CN)Cc2cccc(F)c2)sc1Cl (stereo unspecified) + COc1c(OCCCN2CCOCC2)ccc2c3n(c(=NC(=O)c4cnc(N)nc4)nc12)CCN3 : its viability, T/C reads 94.6

Noted for CCCS(=O)(=O)Nc1ccc(F)c(C(=O)c2c[nH]c3ncc(-c4ccc(Cl)cc4)cc23)c1F + COc1c(OCCCN2CCOCC2)ccc2c3n(c(=NC(=O)c4cnc(N)nc4)nc12)CCN3 : its viability, T/C reads 98.3

Noted for Cn1nccc1Nc1nccc(-c2ccn(C(CO)c3ccc(Cl)c(F)c3)c(=O)c2)n1 (stereo unspecified) + CC(Nc1ccc2c(c1)OCCn1cc(N3C(=O)OCC3C(F)F)nc1-2)C(N)=O : its viability, T/C reads 81.8

Noted for CC(C)NCC(C(=O)N1CCN(c2ncnc3c2C(C)CC3O)CC1)c1ccc(Cl)cc1 (stereo unspecified) + CC(Nc1ccc2c(c1)OCCn1cc(N3C(=O)OCC3C(F)F)nc1-2)C(N)=O : its viability, T/C reads 90.4

Noted for CCN1CCN(Cc2ccc(Nc3ncc(F)c(-c4cc(F)c5nc(C)n(C(C)C)c5c4)n3)nc2)CC1 + CC(Nc1ccc2c(c1)OCCn1cc(N3C(=O)OCC3C(F)F)nc1-2)C(N)=O : its viability, T/C reads 113

Noted for CC1(C)CCC(CN2CCN(c3ccc(C(=O)NS(=O)(=O)c4ccc(NCC5CCOCC5)c([N+](=O)[O-])c4)c(Oc4cnc5[nH]ccc5c4)c3)CC2)=C(c2ccc(Cl)cc2)C1 + COc1c(OCCCN2CCOCC2)ccc2c3n(c(=NC(=O)c4cnc(N)nc4)nc12)CCN3 : its viability, T/C reads 98.2

Noted for CC1(C)CCC(Nc2ncc(C(F)(F)F)c(-c3c[nH]c4c(P(C)(C)=O)c(C#N)ccc34)n2)CN1 (stereo unspecified) + COc1c(OCCCN2CCOCC2)ccc2c3n(c(=NC(=O)c4cnc(N)nc4)nc12)CCN3 : its viability, T/C reads 38.7

Noted for C=CC(=O)N1CCN(c2nc(=O)n(-c3c(C)ccnc3C(C)C)c3nc(-c4c(O)cccc4F)c(F)cc23)C(C)C1 (stereo unspecified) + COc1c(OCCCN2CCOCC2)ccc2c3n(c(=NC(=O)c4cnc(N)nc4)nc12)CCN3 : its viability, T/C reads 97.8

Noted for Cn1ncc(Cl)c1-c1cc(C(=O)NC(CN)Cc2cccc(F)c2)sc1Cl (stereo unspecified) + CC(Nc1ccc2c(c1)OCCn1cc(N3C(=O)OCC3C(F)F)nc1-2)C(N)=O : its viability, T/C reads 115

Noted for CC1(C)CCC(Nc2ncc(C(F)(F)F)c(-c3c[nH]c4c(P(C)(C)=O)c(C#N)ccc34)n2)CN1 (stereo unspecified) + CC(Nc1ccc2c(c1)OCCn1cc(N3C(=O)OCC3C(F)F)nc1-2)C(N)=O : its viability, T/C reads 58

Noted for C#Cc1c(F)ccc2cc(O)cc(-c3ncc4c(N5CC6CCC(C5)N6)nc(OCC56CCCN5CC(F)C6)nc4c3F)c12 (stereo unspecified) + CC(Nc1ccc2c(c1)OCCn1cc(N3C(=O)OCC3C(F)F)nc1-2)C(N)=O : its viability, T/C reads 102

Noted for C[C@@H](NC(=O)c1ncnc(N)c1Cl)c1ncc(C(=O)Nc2cc(C(F)(F)F)c(Cl)cn2)s1 + CC(Nc1ccc2c(c1)OCCn1cc(N3C(=O)OCC3C(F)F)nc1-2)C(N)=O : its viability, T/C reads 98.1

Noted for Cn1nccc1Nc1nccc(-c2ccn(C(CO)c3ccc(Cl)c(F)c3)c(=O)c2)n1 (stereo unspecified) + COc1c(OCCCN2CCOCC2)ccc2c3n(c(=NC(=O)c4cnc(N)nc4)nc12)CCN3 : its viability, T/C reads 81.2

Noted for CNC(=O)c1ccc(N2C(=S)N(c3ccc(C#N)c(C(F)(F)F)c3)C(=O)C2(C)C)cc1F + COc1c(OCCCN2CCOCC2)ccc2c3n(c(=NC(=O)c4cnc(N)nc4)nc12)CCN3 : its viability, T/C reads 103

Noted for CC1(C)CCC(CN2CCN(c3ccc(C(=O)NS(=O)(=O)c4ccc(NCC5CCOCC5)c([N+](=O)[O-])c4)c(Oc4cnc5[nH]ccc5c4)c3)CC2)=C(c2ccc(Cl)cc2)C1 + CC(Nc1ccc2c(c1)OCCn1cc(N3C(=O)OCC3C(F)F)nc1-2)C(N)=O : its viability, T/C reads 99.4

Noted for C[C@@H](NC(=O)c1ncnc(N)c1Cl)c1ncc(C(=O)Nc2cc(C(F)(F)F)c(Cl)cn2)s1 + COc1c(OCCCN2CCOCC2)ccc2c3n(c(=NC(=O)c4cnc(N)nc4)nc12)CCN3 : its viability, T/C reads 116

###

# Tested on: 616215-338-R-J1-PDC spheroids with HUVEC/MSC, viability
# TEST_DETAILS: Anticancer human tumor 616215-338-R-J1-PDC cell line growth inhibition [PI3K];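 further: spheroids exposed to agents for seven days before the viability read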
# MEASUREMENT_CONTEXT: second compound 0.0316 µM; first compound 0.1 µM; stronger effect = lower value
Item-by-item account of viability, T/C
Answer with a number only, understood to be in %.

Consider the reported viability, T/C for these compounds:
Noted for C=CC(=O)N1CCN(c2nc(=O)n(-c3c(C)ccnc3C(C)C)c3nc(-c4c(O)cccc4F)c(F)cc23)C(C)C1 (stereo not given) + Cc1nc(NC(=O)N2CCCC2C(N)=O)sc1-c1ccnc(C(C)(C)C(F)(F)F)c1 : its viability, T/C reads 92.1

Noted for Cn1ncnc1[C@H]1c2n[nH]c(=O)c3cc(F)cc(c23)N[C@@H]1c1ccc(F)cc1 + CC(Nc1ccc2c(c1)OCCn1cc(N3C(=O)OCC3C(F)F)nc1-2)C(N)=O : its viability, T/C reads 93.2

Noted for CCN1CCN(Cc2ccc(Nc3ncc(F)c(-c4cc(F)c5nc(C)n(C(C)C)c5c4)n3)nc2)CC1 + COc1c(OCCCN2CCOCC2)ccc2c3n(c(=NC(=O)c4cnc(N)nc4)nc12)CCN3 : its viability, T/C reads 106

Further cases:
Noted for CC1(C)CCC(CN2CCN(c3ccc(C(=O)NS(=O)(=O)c4ccc(NCC5CCOCC5)c([N+](=O)[O-])c4)c(Oc4cnc5[nH]ccc5c4)c3)CC2)=C(c2ccc(Cl)cc2)C1 + COc1c(OCCCN2CCOCC2)ccc2c3n(c(=NC(=O)c4cnc(N)nc4)nc12)CCN3 : its viability, T/C reads 99.4

Noted for CC1(C)CCC(Nc2ncc(C(F)(F)F)c(-c3c[nH]c4c(P(C)(C)=O)c(C#N)ccc34)n2)CN1 (stereo not given) + CC(Nc1ccc2c(c1)OCCn1cc(N3C(=O)OCC3C(F)F)nc1-2)C(N)=O : its viability, T/C reads 49.4

Reference for the values: PubChem BioAssay AID1963978
